- system-tested: T1, Recombinant RSV attachment protein (G protein) corresponding to RSV A/Long (Respiratory syncytial virus A/Long, UniProt P20895 65-298)
- T1 construct: also called RSV Ga; Ga
- T1 sequence: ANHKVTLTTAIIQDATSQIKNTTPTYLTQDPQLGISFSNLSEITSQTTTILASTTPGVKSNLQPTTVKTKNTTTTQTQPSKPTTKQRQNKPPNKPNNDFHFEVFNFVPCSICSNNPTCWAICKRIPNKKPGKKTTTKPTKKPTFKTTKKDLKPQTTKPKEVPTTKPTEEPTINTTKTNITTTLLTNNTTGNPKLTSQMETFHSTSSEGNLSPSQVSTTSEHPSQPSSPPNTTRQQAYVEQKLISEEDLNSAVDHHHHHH
- procedure-summary: ELISA, coated recombinant protein (Example 6)
measured-endpoint: binding result

CB002.1 (antibody, V domains shown, also called CB2.1) VH: QVQLQESGPRLVKPSETLSLTCTVSGGSTSSYFWNWIRQPPGKGLEWIGYIYGSGSADYNPSLKSRVTISIDTSKTQFSLKLTSVTAADTAVYYCARSGFCTNDACYRRGSWFDPWGQGTLVTVSS VL: DIQMTQSPSSLSASVGDRVTITCRASQSIDNYLNWYQQKPGKAPKLLIYAASSLQSGVPSRFSGSGSGTDFTLTVSSLHPEDFATYYCQQSYSTLTWTFGQGTKVEIK :: binds
